Test: NCI Yeast Anticancer Drug Screen. Data for the rad52 strain (AID 147);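 also: 0% = growth of vehicle-treated control cultures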
Conditions: S. cerevisiae rad52 mutant growth inhibition; at 1.2 µM; stronger effect = higher value
Method: Growth inhibition of yeast strains with defined genetic alterations is measured as a screen for potential anti-cancer activity. Selected strains with alterations in DNA damage repair or cell cycle control were exposed to compounds and growth inhibition was measured relative to vehicle treated controls. The strain used in this assay is rad52
Compounds without any hit were thinned out: in the full panel of roughly 79,000, 15% have a hit. Starred links: 1 amine or outer side, 2 acyl side, 3 side chain; linkers in the order of their positions; H or OH if unused. Positions of bridges follow the written chain, without caps; N, C: chain ends. Non-standard residues stand in square brackets, D forms with d. Residues, ends and D or L forms follow the SMILES beside them. Chains are numbered I, II in the order given. Actinocin(9to1) = Cc1c2oc3c(C)ccc(C(=O)[*:1])c3nc-2c(C(=O)[*:2])c(N)c1=O; aThr = C[C@H](O)[C@H](N)C(=O)O; NMeV = CN[C@H](C(=O)O)C(C)C; Sar = CNCC(=O)O
MEASURED_PARAMETER: growth inhibition (%)

INSERT INTO measurements (compound, val) VALUES
  ('CCOC(=O)C1=C(C)NC(C)=C(C(=O)OCC)C1c1cccc([N+](=O)[O-])c1', -90),
  ('CN(C)/N=N/c1nc[nH]c1C(N)=O', -2),
  ('CC(=O)c1ccc(NCN2C(=O)c3ccccc3C2=O)cc1', -31),
  ('O=c1[nH]cc(F)c(=O)[nH]1', 2),
  ('COc1ccc(CCN2C(=O)C=CC2=O)cc1OC', 13),
  ('CCOC(=O)C1=C(C)NC(C)=C(C(=O)OCC)C1c1ccc(Cl)cc1', -13),
  ('Cc1ccc(SSc2ccc(C)cc2[N+](=O)[O-])c([N+](=O)[O-])c1', 5),
  ('Cc1ccc2nc(N/N=C/c3ccc(C)s3)cc(C)c2c1', -26),
  ('Clc1ccc(C(c2ccc(Cl)cc2)N2CCNCC2)cc1', 2),
  ('Cc1c2oc3c(C)ccc(C(=O)N[C@@H]4C(=O)N[C@H](C(C)C)C(=O)N5CCC[C@H]5C(=O)N(C)CC(=O)N(C)[C@@H](C(C)C)C(=O)O[C@H]4C)c3nc-2c(C(=O)N[C@@H]2C(=O)N[C@H](C(C)C)C(=O)N3CCC[C@H]3C(=O)N(C)CC(=O)N(C)[C@@H](C(C)C)C(=O)O[C@H]2C)c(N)c1=O (I: [aThr][dV]P[Sar][NMeV] / II: [aThr][dV]P[Sar][NMeV]; ester I:1-I:C, II:1-II:C; linker I:N-II:N via Actinocin(9to1))', 5);

---

assay: NCI Yeast Anticancer Drug Screen. Data for the rad50 strain (AID 155);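 also: 0% = growth of vehicle-only cultures of the same strain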; conditions: S. cerevisiae rad50 strain growth inhibition; at 33.0 µM; stronger effect = higher value
This is part of a sample that, as a whole, favours compounds with a hit. Of some 79,000 tested, about 15% had one in any assay. Active and inactive are the calls of the source. Cut-off read from the data, not from the text of the source: active = growth inhibition above about 70%; inactive = the rest.
MEASURED_PARAMETER: growth inhibition

INSERT INTO assay_data (compound, val) VALUES
  ('O=[N+]([O-])c1ccc2nnnn2c1', '10% (inactive)'),
  ('O=[N+]([O-])C(=C(NCc1ccccc1)NCc1ccccc1)C(Cl)=C(Cl)Cl', '13% (inactive)'),
  ('CCCC#CCOC(=O)c1cc([N+](=O)[O-])cc([N+](=O)[O-])c1', '98% (active)'),
  ('O=c1oc(C(C(F)(F)F)C(F)(F)F)nc2ccccc12', '29% (inactive)'),
  ('Clc1ccc(C(c2ccc(Cl)cc2)N2CCNCC2)cc1', '67% (inactive)'),
  ('Nc1nc(Nc2ccccc2)nc(Nc2ccccc2)n1', '11% (inactive)'),
  ('O=C1C(C(O)(C(F)(F)F)C(F)(F)F)CCC1C(O)(C(F)(F)F)C(F)(F)F (stereo unspecified)', '3% (inactive)'),
  ('CNC(=O)OCc1c(COC(=O)NC)c(C)n(-c2ccc(Cl)c(Cl)c2)c1C', '97% (active)'),
  ('Cc1ccccc1C1=C(CC(=O)O)c2ccccc2CC1C (stereo unspecified)', '97% (active)'),
  ('Cc1cccc[c]1[Sn]([Cl])([S]/C(C#N)=N/N=C/c1ccc(N(C)C)cc1)[c]1ccccc1C', '67% (inactive)'),
  ('O=C1c2ccc(O)cc2C(=O)c2c(O)ccc(O)c21', '95% (active)'),
  ('Cc1ccc(S(=O)(=O)N/N=C/c2c(O)ccc3ccccc23)cc1', '82% (active)'),
  ('Oc1ccc(Br)cc1C=Nc1cccc(C(F)(F)F)c1', '91% (active)'),
  ('Cc1ccc(Cl)c2c(=O)c3ccccc3[nH]c12', '3% (inactive)'),
  ('CCOC(=O)C1=C(C)NC(C)=C(C(=O)OCC)C1c1cccc([N+](=O)[O-])c1', '65% (inactive)'),
  ('CCOC(=O)c1sc2[n+](c1C)C(=O)/C(=C/c1cc(OC)c(OC)c(OC)c1)S2', '68% (inactive)'),
  ('CC1=NN(C(=O)CC(=O)N(C(=O)c2ccccc2)c2ccc(Cl)cc2)C(=O)C1N=Nc1ccc([N+](=O)[O-])cc1 (stereo unspecified)', '74% (active)'),
  ('Cc1c(N=Nc2ccc(Cl)cc2)c(C)n(C2OC(CO)C(O)C(O)C2O)c(=S)c1C#N (stereo unspecified)', '35% (inactive)'),
  ('Cn1c(COc2ccc(/C=N/NC(=O)CCC(=O)N/N=C/c3ccc(OCc4c[n+]5ccccc5n4C)cc3)cc2)c[n+]2ccccc12', '5% (inactive)'),
  ('CN(C)c1ccc(/C=C/c2ccnc3ccc4ccccc4c23)cc1', '67% (inactive)'),
  ('c1ccc(C2=NNC3c4ccccc4-c4ccccc4N3C2)cc1 (stereo unspecified)', '33% (inactive)');

All figures here come from PubChem BioAssay (NCI).
